measured.on: Vitamin D3 receptor (Homo sapiens, UniProt P11473)
Sequence (P11473 whole entry): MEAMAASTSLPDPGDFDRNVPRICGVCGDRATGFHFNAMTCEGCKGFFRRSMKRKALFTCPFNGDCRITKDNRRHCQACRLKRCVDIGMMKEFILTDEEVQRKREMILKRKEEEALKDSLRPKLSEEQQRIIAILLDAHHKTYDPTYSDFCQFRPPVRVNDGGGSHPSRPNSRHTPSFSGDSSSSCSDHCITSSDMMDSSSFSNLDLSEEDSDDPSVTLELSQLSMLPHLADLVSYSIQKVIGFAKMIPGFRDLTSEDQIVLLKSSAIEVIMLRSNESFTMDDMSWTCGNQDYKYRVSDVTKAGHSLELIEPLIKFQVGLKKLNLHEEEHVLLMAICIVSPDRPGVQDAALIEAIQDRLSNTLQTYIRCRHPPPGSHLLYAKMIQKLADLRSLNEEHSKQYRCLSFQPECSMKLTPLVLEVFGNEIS
method.description: Agonist activity at VDR ligand binding domain (unknown origin) by reporter gene assay
readout: EC50

INSERT INTO measurements (input_smiles, measured_on, endpoint_value) VALUES
  ('C=C1[C@H](O)CC(=C/C=C2\CCC[C@]3(C)[C@@H]([C@@H](C)OC[C@H](C)C(C)(C)O)CC[C@@H]23)C[C@H]1O', 'Vitamin D3 receptor (Homo sapiens, UniProt P11473)', '< 0.1 nM');

###

method.description: Therapeutic index, ratio for induction of hypercalcemia over suppression of serum PTH level in 5/6 nephrectomized uremic Sprague-Dawley rat
Format: organism-based
run.parameters: read-out: TI
readout: selectivity ratio

INSERT INTO assay_data (input_smiles, readout, inequality_operator, endpoint_value) VALUES
  ('C=C1[C@H](O)CC(=C/C=C2\CCC[C@]3(C)[C@@H]([C@@H](C)OC[C@H](C)C(C)(C)O)CC[C@@H]23)C[C@H]1O', 'selectivity ratio', '>', 50),
  ('C[C@H](/C=C/[C@H](C)C(C)(C)O)[C@H]1CC[C@H]2/C(=C/C=C3C[C@@H](O)C[C@H](O)C3)CCC[C@]12C', 'selectivity ratio', '=', 4);

###

Test system: HL-60
method.description: Induction of human HL60 cell differentiation after 4 days by NBT reduction assay
Type: functional, cell-based
run.parameters: HL-60, 96 h
pEC50: −log10 of the molar value.
Parameter: pEC50. Scope: all listed entries.
readout: pEC50

INSERT INTO results (compound, endpoint_value) VALUES
  ('C=C1[C@H](O)CC(=C/C=C2\CCC[C@]3(C)[C@@H]([C@@H](C)OC[C@H](C)C(C)(C)O)CC[C@@H]23)C[C@H]1O', 7.93),
  ('C[C@H](/C=C/[C@H](C)C(C)(C)O)[C@H]1CC[C@H]2/C(=C/C=C3C[C@@H](O)C[C@H](O)C3)CCC[C@]12C [PARICALCITOL]', 7.90);
